Biological target: Cbl-b (Homo sapiens (Human), UniProt Q13191)
Sequence (Q13191 36-427): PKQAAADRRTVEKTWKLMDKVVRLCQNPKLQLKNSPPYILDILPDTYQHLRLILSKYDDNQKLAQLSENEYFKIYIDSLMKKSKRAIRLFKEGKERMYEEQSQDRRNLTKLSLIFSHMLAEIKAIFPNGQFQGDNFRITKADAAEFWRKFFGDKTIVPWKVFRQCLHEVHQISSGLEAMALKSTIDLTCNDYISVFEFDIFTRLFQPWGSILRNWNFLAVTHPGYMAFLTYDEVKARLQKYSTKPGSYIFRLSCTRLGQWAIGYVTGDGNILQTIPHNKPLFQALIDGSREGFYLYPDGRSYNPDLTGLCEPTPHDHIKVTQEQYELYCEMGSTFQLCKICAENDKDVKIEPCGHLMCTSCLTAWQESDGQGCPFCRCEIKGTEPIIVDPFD
Assay: Cbl-b displacement assay (Cbl-b inhibition assay), Biological Example 1
Type: binding
Details: 0.125 nM Cbl-b final concentration (Low); read-out: Cbl-b activity IC50 (Low)
measurement_type: IC50

C[C@@H]1CN(Cc2cc3c(c(C(F)(F)F)c2)CN(c2cccc(C4(c5nncn5C)CC(F)(F)C4)c2)C3=O)CCC1(F)F : < 5 nM

Request - read-out IC50 | tested on Cbl-b (Homo sapiens (Human), UniProt Q13191) | compound "CO[C@H]1C[C@](c2cccc(N3Cc4c(cc(CN5CCC(F)(F)[C@H](C)C5)cc4C(F)(F)F)C3=O)c2)(c2nncn2C)C1" < 5 nM

So what IC50 did "C[C@H]1CCCN(Cc2cc3c(c(C(F)(F)F)c2)CN(c2cccc([C@@H](c4nncn4C)C4CCC4)c2)C3=O)C1" get with Cbl-b (Homo sapiens (Human), UniProt Q13191)? < 5 nM

Please state recorded IC50 (tested on Cbl-b (Homo sapiens (Human), UniProt Q13191)) of "C[C@@H]1CN(Cc2cc3c(c(C(F)(F)F)c2)CN(c2cccc([C@]4(c5nncn5C)C[C@@H](O)C4)c2)C3=O)CCC1(F)F" 5 to 20 nM

Fill in the recorded IC50 for this compound, with Cbl-b (Homo sapiens (Human), UniProt Q13191) as test system: "CO[C@H]1C[C@](c2cccc(N3Cc4c(cc(CN5CCC[C@H](C)C5)cc4C(F)(F)F)C3=O)c2)(c2nncn2C)C1" < 5 nM

Enter reported IC50 observed with Cbl-b (Homo sapiens (Human), UniProt Q13191) for "C[C@H]1CCCN(Cc2cc3c(c(C(F)(F)F)c2)CN(c2cccc([C@]4(c5nncn5C)C[C@H](O)C4)c2)C3=O)C1" < 5 nM

What is its IC50 for Cbl-b (Homo sapiens (Human), UniProt Q13191)? Entry: "C[C@@H]1CN(Cc2cc3c(c(C4CC4)n2)CN(c2cccc([C@]4(c5nncn5C)C[C@@H](C)C4)c2)C3=O)CCC1(F)F" 5 to 20 nM

Enter reported IC50 observed with Cbl-b (Homo sapiens (Human), UniProt Q13191) for "C[C@H]1CCCN(Cc2cc3c(c(C4CC4)n2)CN(c2cccc([C@@H](c4nncn4C)C4CCC4)c2)C3=O)C1" 20 to 100 nM
